Entry source: ChEMBL document CHEMBL2169878

system: Plasmodium falciparum; test: Antiplasmodial activity against chloroquine-resistant Plasmodium falciparum K1 infected in human erythrocytes assessed as inhibition of [3H]hypoxanthine incorporation incubated for 48 hrs prior to [3H]hypoxanthine addition measured after 48 hrs by liquid scintillation counting; type: functional, organism-based
Give pIC50 for every item shown.
Interpret pIC50 as the negative base-10 log of the concentration measured in mol/L.

Given the compound Clc1ccc(C(Nc2ccnc3cc(Cl)ccc23)c2ccc(CN3CCNCC3)cc2)cc1 (racemic) , what is its reported pIC50?
7.66

Same question for Clc1ccc(C(c2ccc(CN3CCCC3)cc2)N2CCN(c3ccnc4cc(Cl)ccc34)CC2)cc1 (racemic) please.
6.81

Same question for Fc1cc(C(Nc2ccnc3cc(Cl)ccc23)c2ccc(Cl)cc2)ccc1CN1CCCC1 (racemic) please.
7.70

Same question for Clc1cccc(C(Nc2ccnc3cc(Cl)ccc23)c2ccc(CN3CCNCC3)cc2)c1 (racemic) please.
7.64

Same question for Clc1ccc(C(Nc2ccnc3cc(Cl)ccc23)c2ccc(CN3CCN(Cc4ccc(C(Nc5ccnc6cc(Cl)ccc56)c5ccc(Cl)cc5)cc4)CC3)cc2)cc1 (racemic) please.
7.25

Same question for Clc1ccc(C(Nc2ccnc3cc(Cl)ccc23)c2ccc(Cn3ccnc3)cc2)cc1 (racemic) please.
7.66

Same question for Clc1cccc(C(Nc2ccnc3cc(Cl)ccc23)c2ccc(CN3CCOCC3)c(Cl)c2)c1 (racemic) please.
6.97

Same question for "Clc1ccc2c(NC(c3ccccc3)(c3ccc(CN4CCCC4)c(Cl)c3)c3ccc(CN4CCCC4)c(Cl)c3)ccnc2c1" please.
8.08

----------
system: Salmonella typhimurium; test: Mutagenicity against Salmonella typhimurium TA100 assessed as revertants at 3 uM incubated for 90 mins followed by drug washout measured after 2 days relative to positive control; assay type: toxicity, organism-based; conditions: salmonella enterica subsp. enterica serovar typhimurium, 1.5 h
ENDPOINT NAME: Activity
I'd appreciate it if you included the unit after the number.

Given the compound Fc1cc(C(Nc2ccnc3cc(Cl)ccc23)c2ccc(Cl)cc2)ccc1CN1CCCC1 (racemic) , what is its reported Activity?
10%

Same question for COc1ccc2nccc(NC(c3cccc(Cl)c3)c3ccc(CN4CCCC4)c(Cl)c3)c2c1 (racemic) please.
4%

Same question for Clc1cccc(C(Nc2ccnc3cc(Cl)ccc23)c2ccc(CN3CCNCC3)cc2)c1 (racemic) please.
3%

Same question for Clc1ccc(C(Nc2ccnc3cc(Cl)ccc23)c2ccc(CN3CCNCC3)cc2)cc1 (racemic) please.
22%

----------
tested on: Plasmodium falciparum; assay: Antiplasmodial activity against chloroquine-resistant Plasmodium falciparum W2 infected in human RBC after 72 hrs by parasite lactate dehydrogenase assay; type: functional, organism-based; conditions: W2, 72 h
ENDPOINT NAME: IC50 (µM)
The reply should be a number in µM, with the unit left off.

Given the compound "Clc1ccc(C(c2ccc(Cl)cc2)(c2ccc(CN3CCCC3)cc2)N2CCN(c3ccnc4cc(Cl)ccc34)CC2)cc1" , what is its reported IC50?
0.582

Same question for Clc1ccc(C(Nc2ccnc3cc(Cl)ccc23)c2ccc(CN3CCN(Cc4ccc(C(Nc5ccnc6cc(Cl)ccc56)c5ccc(Cl)cc5)cc4)CC3)cc2)cc1 (racemic) please.
0.098

Same question for Clc1ccc(C(Nc2ccnc3cc(Cl)ccc23)c2ccc(CN3CCN(Cc4ccccc4)CC3)cc2)cc1 (racemic) please.
0.79

Same question for Fc1cc(C(Nc2ccnc3cc(Cl)ccc23)c2cccc(Cl)c2)ccc1CN1CCCC1 (racemic) please.
0.025

Same question for Fc1cc(C(Nc2ccnc3cc(Cl)ccc23)c2ccc(Cl)cc2)ccc1CN1CCCC1 (racemic) please.
0.045

Same question for Clc1ccc(C(Nc2ccnc3cc(Cl)ccc23)c2ccc(CN3CCNCC3)cc2)cc1 (racemic) please.
0.058

Same question for Clc1cccc(C(Nc2ccnc3cc(Cl)ccc23)c2ccc(CN3CCCC3)c(Cl)c2)c1 (racemic) please.
0.05

----------
experiment: Elimination half life in CD1 albino mouse liver at 50 mg/kg, po; format: ADME, organism-based; set-up: dose 50 mg/kg, route oral; settings: read-out: beta t1/2 (converted)
ENDPOINT NAME: half-life (h)
The reply should be a number in h, with the unit left off.

Given the molecule Clc1ccc(C(Nc2ccnc3cc(Cl)ccc23)c2ccc(CN3CCNCC3)cc2)cc1 (racemic) , what is its reported half-life?
29

----------
Give CC50 at 24 h for every item shown.
experiment: Cytotoxicity against human HepG2 cells after 24 hrs by neutral red dye uptake assay; assay type: cell-based; details: read-out: TC50
The reply should be a number in µM, with the unit left off.

Given the molecule COc1ccc2nccc(NC(c3cccc(Cl)c3)c3ccc(CN4CCCC4)c(Cl)c3)c2c1 (racemic) , what is its reported CC50 at 24 h?
12

Same question for Clc1ccc(C(Nc2ccnc3cc(Cl)ccc23)c2ccc(Cn3ccnc3)cc2)cc1 (racemic) please.
22

Same question for Clc1cccc(C(Nc2ccnc3cc(Cl)ccc23)c2ccc(CN3CCCC3)cc2)c1 (racemic) please.
31

Same question for Fc1cc(C(Nc2ccnc3cc(C(F)(F)F)ccc23)c2ccc(Cl)cc2)ccc1CN1CCCC1 (racemic) please.
19

Same question for CCN(CC)CCCC(C)Nc1ccnc2cc(Cl)ccc12 (stereo unspecified) please.
4.3

Same question for "Clc1ccc2c(NC(c3ccccc3)(c3ccc(CN4CCCC4)c(Cl)c3)c3ccc(CN4CCCC4)c(Cl)c3)ccnc2c1" please.
6.1

Same question for Clc1ccc(C(Nc2ccnc3cc(Cl)ccc23)c2ccc(CN3CCCC3)c(Cl)c2)cc1 (racemic) please.
4

Same question for Clc1ccc(C(Nc2ccnc3cc(Cl)ccc23)c2ccc(CN3CCNCC3)cc2)cc1 (racemic) please.
1.8

Same question for Fc1cc(C(Nc2ccnc3cc(Cl)ccc23)c2ccc(Cl)cc2)ccc1CN1CCCC1 (racemic) please.
12

----------
system: Salmonella typhimurium; test: Mutagenicity against Salmonella typhimurium TA98 assessed as revertants at 4 uM incubated for 90 mins followed by drug washout measured after 2 days relative to positive control; format: toxicity, organism-based; details: salmonella enterica subsp. enterica serovar typhimurium
ENDPOINT NAME: Activity (%)
The reply should be a number in %, with the unit left off.

Given the molecule Clc1ccc(C(Nc2ccnc3cc(Cl)ccc23)c2ccc(CN3CCCC3)c(Cl)c2)cc1 (racemic) , what is its reported Activity?
0

Same question for Clc1ccc(C(Nc2ccnc3cc(Cl)ccc23)c2ccc(Cn3ccnc3)cc2)cc1 (racemic) please.
7

Same question for Fc1cc(C(Nc2ccnc3cc(C(F)(F)F)ccc23)c2ccc(Cl)cc2)ccc1CN1CCCC1 (racemic) please.
1

Same question for Clc1cccc(C(Nc2ccnc3cc(Cl)ccc23)c2ccc(CN3CCCC3)cc2)c1 (racemic) please.
0

Same question for Clc1cccc(C(Nc2ccnc3cc(Cl)ccc23)c2ccc(CN3CCNCC3)cc2)c1 (racemic) please.
4

----------
experiment: Cytotoxicity against mouse NIH3T3 cells after 24 hrs by neutral red dye uptake assay; assay type: cell-based; details: read-out: TC50
CC50 at 24 h under 20 µM gets 1, anything at or over 20 µM gets 0.

Hi there! Is CC50 at 24 h for Fc1cc(C(Nc2ccnc3cc(Cl)ccc23)c2ccc(Cl)cc2)ccc1CN1CCCC1 (racemic) below 20 µM, do you know?
0

Same question for Clc1cccc(C(Nc2ccnc3cc(Cl)ccc23)c2ccc(CN3CCCC3)cc2)c1 (racemic) please.
1

Same question for Clc1ccc(C(Nc2ccnc3cc(Cl)ccc23)c2ccc(CN3CCCC3)c(Cl)c2)cc1 (racemic) please.
1

Same question for Clc1ccc(C(Nc2ccnc3cc(Cl)ccc23)c2ccc(CN3CCNCC3)cc2)cc1 (racemic) please.
1

Same question for CCN(CC)CCCC(C)Nc1ccnc2cc(Cl)ccc12 (stereo unspecified) please.
0

Same question for "Clc1ccccc1C(c1ccccc1)(c1ccccc1)n1ccnc1" please.
0

Same question for Fc1cc(C(Nc2ccnc3cc(C(F)(F)F)ccc23)c2ccc(Cl)cc2)ccc1CN1CCCC1 (racemic) please.
0

Same question for COc1ccc2nccc(NC(c3cccc(Cl)c3)c3ccc(CN4CCCC4)c(Cl)c3)c2c1 (racemic) please.
0

Same question for Clc1ccc(C(Nc2ccnc3cc(Cl)ccc23)c2ccc(Cn3ccnc3)cc2)cc1 (racemic) please.
0

Same question for "Clc1ccc2c(NC(c3ccccc3)(c3ccc(CN4CCCC4)c(Cl)c3)c3ccc(CN4CCCC4)c(Cl)c3)ccnc2c1" please.
1

Same question for Clc1cccc(C(Nc2ccnc3cc(Cl)ccc23)c2ccc(CN3CCNCC3)cc2)c1 (racemic) please.
1

----------
test system: Plasmodium falciparum; assay: Antiplasmodial activity against chloroquine-resistant Plasmodium falciparum W2 infected in human RBC after 72 hrs by parasite lactate dehydrogenase assay; format: functional, organism-based; details: W2, 72 h
ENDPOINT NAME: IC50
I'd appreciate it if you included the unit after the number.

Given the compound Clc1ccc(C(c2ccc(CN3CCCC3)cc2)N2CCN(c3ccnc4cc(Cl)ccc34)CC2)cc1 (racemic) , what is its reported IC50?
0.735 µM

Same question for COc1ccc2nccc(NC(c3ccc(Cl)cc3)c3ccc(CN4CCCC4)c(F)c3)c2c1 (racemic) please.
0.069 µM

Same question for CN1CCN(Cc2ccc(C(Nc3ccnc4cc(Cl)ccc34)c3ccc(Cl)cc3)cc2)CC1 (racemic) please.
0.042 µM

Same question for Clc1ccc(C(Nc2ccnc3cc(Cl)ccc23)c2ccc(Cn3ccnc3)cc2)cc1 (racemic) please.
0.057 µM

Same question for Clc1cccc(C(Nc2ccnc3cc(Cl)ccc23)c2ccc(CN3CCN(c4ccnc5cc(Cl)ccc45)CC3)c(Cl)c2)c1 (racemic) please.
0.058 µM

Same question for FC(F)(F)c1ccc2c(NC(c3cccc(Cl)c3)c3ccc(CN4CCCC4)c(Cl)c3)ccnc2c1 (racemic) please.
0.111 µM

Same question for COc1ccc2nccc(NC(c3ccc(Cl)cc3)c3ccc(CN4CCNCC4)cc3)c2c1 (racemic) please.
0.163 µM

Same question for COc1ccc2nccc(NC(c3cccc(Cl)c3)c3ccc(CN4CCOCC4)c(Cl)c3)c2c1 (racemic) please.
0.229 µM

Same question for "Clc1ccc2c(NC(c3ccccc3)(c3ccc(CN4CCCC4)c(Cl)c3)c3ccc(CN4CCCC4)c(Cl)c3)ccnc2c1" please.
0.052 µM

Same question for Fc1cc(C(Nc2ccnc3cc(C(F)(F)F)ccc23)c2ccc(Cl)cc2)ccc1CN1CCCC1 (racemic) please.
0.076 µM

Same question for Clc1cccc(C(Nc2ccnc3cc(Cl)ccc23)c2ccc(CN3CCNCC3)cc2)c1 (racemic) please.
0.033 µM

Same question for COc1cc(C(Nc2ccnc3cc(Cl)ccc23)c2ccc(Cl)cc2)ccc1CN1CCCC1 (racemic) please.
0.048 µM

Same question for Clc1cccc(C(Nc2ccnc3cc(Cl)ccc23)c2ccc(CN3CCOCC3)c(Cl)c2)c1 (racemic) please.
0.277 µM

Same question for COc1ccc2nccc(NC(c3cccc(Cl)c3)c3ccc(CN4CCCC4)c(Cl)c3)c2c1 (racemic) please.
0.09 µM

Same question for Clc1ccc(C(Nc2ccnc3cc(Cl)ccc23)c2ccc(CN3CCCC3)c(Cl)c2)cc1 (racemic) please.
0.028 µM

Same question for COc1ccc2nccc(NC(c3cccc(Cl)c3)c3ccc(CN4CCCC4)c(F)c3)c2c1 (racemic) please.
0.101 µM

Same question for COc1ccc2nccc(NC(c3ccc(Cl)cc3)c3ccc(CN4CCCC4)c(Cl)c3)c2c1 (racemic) please.
0.076 µM
